I'd appreciate it if you could supply Potency values for the items below.
target_or_system: UniProt:P00734
protocol_details: anti-thrombin activity; clotting assay (coagulation time with fibrinogen as substrate)
Format: biochemical
Design: 100 μl of human-thrombin prepared at 10 NIH units/ml in aforesaid buffer
setup_conditions: calculated using the definition that HV-1 (54-65) potency is 1
*1 amine or outer side, *2 acyl side, *3 side chain or, on linkers, in order; H or OH if unused. Where a SMILES comes first, the peptide text is derived from it. [ ]: non-standard residue; d: D form. sY = N[C@@H](Cc1ccc(OS(=O)(=O)O)cc1)C(=O)O; Suc = O=C(CCC(=O)[*:2])[*:1]
Answers are plain numbers.

compound	target_or_system	Potency
CCNC(=O)[C@H](CC(C)C)NC(=O)[C@H](Cc1ccc(O)cc1)NC(=O)[C@H](Cc1ccc(O)cc1)NC(=O)[C@H](CCC(=O)O)NC(=O)[C@@H]1CCCN1C(=O)[C@@H](NC(=O)[C@@H]1CCCN1C(=O)[C@H](CCC(=O)O)NC(=O)[C@H](Cc1ccccc1)NC(=O)CCC(=O)O)[C@@H](C)CC [(R)] (Suc-FEPIPEYYL-NHEt)	UniProt:P00734	0.18
CC[C@H](C)[C@H](NC(=O)[C@@H]1CCCN1C(=O)[C@H](CCC(=O)O)NC(=O)[C@H](Cc1ccccc1)NC(=O)[C@H](CC(=O)O)NC(=O)CNC(=O)CCC(=O)O)C(=O)N1CCC[C@H]1C(=O)N[C@@H](CCC(=O)O)C(=O)N[C@@H](Cc1ccc(O)cc1)C(=O)N[C@@H](Cc1ccc(O)cc1)C(=O)N[C@@H](CC(C)C)C(=O)N[C@@H](CCC(N)=O)C(=O)O [(C)] (Suc-GDFEPIPEYYLQ-OH)	UniProt:P00734	1.76
CC[C@H](C)[C@H](NC(=O)[C@@H]1CCCN1C(=O)[C@H](CCC(=O)O)NC(=O)[C@H](Cc1ccccc1)NC(=O)[C@H](CC(=O)O)NC(=O)CNC(=O)CCC(=O)O)C(=O)N1CCC[C@H]1C(=O)N[C@@H](CCC(=O)O)C(=O)N[C@@H](Cc1ccc(OS(=O)(=O)O)cc1)C(=O)N[C@@H](Cc1ccc(OS(=O)(=O)O)cc1)C(=O)N[C@@H](CC(C)C)C(=O)N[C@@H](CCC(N)=O)C(=O)O [Sulfated form of (C)] (Suc-GDFEPIPE[sY][sY]LQ-OH)	UniProt:P00734	88.94
CC[C@H](C)[C@H](NC(=O)[C@@H]1CCCN1C(=O)[C@H](CCC(=O)O)NC(=O)[C@H](Cc1ccccc1)NC(=O)CCC(=O)O)C(=O)N1CCC[C@H]1C(=O)N[C@@H](CCC(=O)O)C(=O)N[C@@H](Cc1ccc(OS(=O)(=O)O)cc1)C(=O)N[C@@H](Cc1ccc(OS(=O)(=O)O)cc1)C(=O)N[C@@H](CC(C)C)C(=O)O [Sulfated form of (Q)] (Suc-FEPIPE[sY][sY]L-OH)	UniProt:P00734	1.85
CC[C@H](C)[C@H](NC(=O)[C@@H]1CCCN1C(=O)[C@H](CCC(=O)O)NC(=O)[C@H](Cc1ccccc1)NC(=O)[C@H](CC(=O)O)NC(=O)CNC(=O)CCC(=O)O)C(=O)N1CCC[C@H]1C(=O)N[C@@H](CCC(=O)O)C(=O)N[C@@H](Cc1ccc(OS(=O)(=O)O)cc1)C(=O)N[C@@H](Cc1ccc(OS(=O)(=O)O)cc1)C(=O)N[C@@H](CC(C)C)C(=O)N[C@@H](CCC(N)=O)C(N)=O [Sulfated form of (D)] (Suc-GDFEPIPE[sY][sY]LQ-NH2)	UniProt:P00734	57.07

Fill in Potency for each of the 5 compounds listed.
1. CC[C@H](C)[C@H](NC(=O)[C@@H]1CCCN1C(=O)[C@H](CCC(=O)O)NC(=O)[C@H](Cc1ccccc1)NC(=O)[C@H](CC(=O)O)NC(=O)CNC(=O)CCC(=O)O)C(=O)N1CCC[C@H]1C(=O)N[C@@H](Cc1ccc(OS(=O)(=O)O)cc1)C(=O)N[C@@H](Cc1ccc(OS(=O)(=O)O)cc1)C(=O)N[C@@H](Cc1ccc(OS(=O)(=O)O)cc1)C(=O)N[C@@H](CC(C)C)C(=O)N[C@@H](CCC(N)=O)C(=O)O [Sulfated form of (E)] (Suc-GDFEPIP[sY][sY][sY]LQ-OH)
2. CC[C@H](C)[C@H](NC(=O)[C@@H]1CCCN1C(=O)[C@H](CCC(=O)O)NC(=O)[C@H](Cc1ccccc1)NC(=O)CCC(=O)O)C(=O)N1CCC[C@H]1C(=O)N[C@@H](CCC(=O)O)C(=O)N[C@@H](Cc1ccc(OS(=O)(=O)O)cc1)C(=O)N[C@@H](Cc1ccc(OS(=O)(=O)O)cc1)C(=O)O [Sulfated form of (I)] (Suc-FEPIPE[sY][sY]-OH)
3. CC[C@H](C)[C@H](NC(=O)[C@@H]1CCCN1C(=O)[C@H](CCC(=O)O)NC(=O)[C@H](Cc1ccccc1)NC(=O)CCC(=O)O)C(=O)N1CCC[C@H]1C(=O)N[C@@H](CCC(=O)O)C(=O)N[C@@H](Cc1ccc(O)cc1)C(=O)N[C@@H](Cc1ccc(O)cc1)C(=O)O [(I)] (Suc-FEPIPEYY-OH)
4. CC[C@H](C)[C@H](NC(=O)[C@@H]1CCCN1C(=O)[C@H](CCC(=O)O)NC(=O)[C@H](Cc1ccccc1)NC(=O)CCC(=O)O)C(=O)N1CCC[C@H]1C(=O)N[C@@H](CCC(=O)O)C(=O)N[C@@H](Cc1ccc(OS(=O)(=O)O)cc1)C(=O)N[C@@H](Cc1ccc(OS(=O)(=O)O)cc1)C(=O)N[C@@H](CC(C)C)C(=O)N[C@@H](CCC(N)=O)C(=O)O [Sulfated form of (G)] (Suc-FEPIPE[sY][sY]LQ-OH)
5. CC[C@H](C)[C@H](NC(=O)[C@@H]1CCCN1C(=O)[C@H](CCC(=O)O)NC(=O)[C@H](Cc1ccccc1)NC(=O)[C@H](CC(=O)O)NC(=O)CCC(=O)O)C(=O)N1CCC[C@H]1C(=O)N[C@@H](CCC(=O)O)C(=O)N[C@@H](Cc1ccc(OS(=O)(=O)O)cc1)C(=O)N[C@@H](Cc1ccc(OS(=O)(=O)O)cc1)C(=O)N[C@@H](CC(C)C)C(=O)N[C@@H](CCC(N)=O)C(=O)O [Sulfated form of (F)] (Suc-DFEPIPE[sY][sY]LQ-OH)

Reply:
1: 44.41; 2: 1.62; 3: 0.83; 4: 108.87; 5: 1.32

All figures here come from patent US5880258A.
